# ASSAY COMMENT: Inhibition of beta-lactamase NDM1 (unknown origin) expressed in Escherichia coli BL21(DE3) using cefotaxime/nitrocefin as substrate by measuring substrate hydrolysis at 100 uM by spectrophotometric analysis
The source made the active and inactive calls. No cut-off for these calls is given here.
ASSAY READOUT: inhibition

{"columns": ["STRUCTURE", "inhibition"],
 "data": [
  ["S=c1[nH]nc(-c2cccc3ccccc23)n1/N=C/c1ccc(OCc2ccccc2)cc1", "inactive"],
  ["Oc1ccc(/C=N/n2c(-c3ccccc3O)n[nH]c2=S)c(O)c1", "inactive"],
  ["Cc1ccccc1-c1n[nH]c(=S)n1/N=C/c1ccccc1[N+](=O)[O-]", "inactive"],
  ["Cc1ccccc1-c1n[nH]c(=S)n1/N=C/c1ccc(O)cc1O", "inactive"]
]}

Please look at the following compound next.
In: Answer with the recorded inhibition of COc1ccc(/C=N/n2c(-c3ccccc3C)n[nH]c2=S)c(O)c1 only.
Out: 32%
